Catalogue of normalized RNA/DNA level without ligand (log10) readings, one per entry.
B1: library; a variant is named by its letters at N, in order (parent)
chain: GCUGUCACCGGUGUAUUACCCUAGUGGUCGACCGGUCUGAUGAGUCUNNNNNNAGACGAAACAGC

- Variants of: B1
- Protocol: normalized RNA/DNA level without ligand (relative to sTRSVctl = 100) (log10 (% of sTRSVctl)); ligand: hypoxanthine (xanthine aptamer); higher = less ribozyme self-cleavage, higher mRNA level
- Applied conditions: HEK293T, reporter: mCherry (pCS4076), ligand present: no
Answer with a bare number; do not write a unit.

GCUGUCACCGGUGUAUUACCCUAGUGGUCGACCGGUCUGAUGAGUCUUUAAUAAGACGAAACAGC: 1.79
GCUGUCACCGGUGUAUUACCCUAGUGGUCGACCGGUCUGAUGAGUCUCUGUCCAGACGAAACAGC: 1.92
GCUGUCACCGGUGUAUUACCCUAGUGGUCGACCGGUCUGAUGAGUCUAGUAGGAGACGAAACAGC: 1.37
GCUGUCACCGGUGUAUUACCCUAGUGGUCGACCGGUCUGAUGAGUCUUGGACAAGACGAAACAGC: 1.81
GCUGUCACCGGUGUAUUACCCUAGUGGUCGACCGGUCUGAUGAGUCUCGCAGUAGACGAAACAGC: 1.86

// GCUGUCACCGGUGUAUUACCCUAGUGGUCGACCGGUCUGAUGAGUCUACUCCCAGACGAAACAGC : normalized RNA/DNA level without ligand (log10) value = 1.92

// GCUGUCACCGGUGUAUUACCCUAGUGGUCGACCGGUCUGAUGAGUCUUCGGCAAGACGAAACAGC : normalized RNA/DNA level without ligand (log10) value = 1.7

// GCUGUCACCGGUGUAUUACCCUAGUGGUCGACCGGUCUGAUGAGUCUACUUAAAGACGAAACAGC : normalized RNA/DNA level without ligand (log10) value = 1.79

// GCUGUCACCGGUGUAUUACCCUAGUGGUCGACCGGUCUGAUGAGUCUAAUUGGAGACGAAACAGC : normalized RNA/DNA level without ligand (log10) value = 1.4

// GCUGUCACCGGUGUAUUACCCUAGUGGUCGACCGGUCUGAUGAGUCUCAGUGGAGACGAAACAGC : normalized RNA/DNA level without ligand (log10) value = 1.32

// GCUGUCACCGGUGUAUUACCCUAGUGGUCGACCGGUCUGAUGAGUCUUUAUGCAGACGAAACAGC : normalized RNA/DNA level without ligand (log10) value = 1.87

// GCUGUCACCGGUGUAUUACCCUAGUGGUCGACCGGUCUGAUGAGUCUGGCCGAAGACGAAACAGC : normalized RNA/DNA level without ligand (log10) value = 1.85

// GCUGUCACCGGUGUAUUACCCUAGUGGUCGACCGGUCUGAUGAGUCUGUCGGGAGACGAAACAGC : normalized RNA/DNA level without ligand (log10) value = 1.58

// GCUGUCACCGGUGUAUUACCCUAGUGGUCGACCGGUCUGAUGAGUCUACACAUAGACGAAACAGC : normalized RNA/DNA level without ligand (log10) value = 1.72

// GCUGUCACCGGUGUAUUACCCUAGUGGUCGACCGGUCUGAUGAGUCUUCAUCUAGACGAAACAGC : normalized RNA/DNA level without ligand (log10) value = 1.99

// GCUGUCACCGGUGUAUUACCCUAGUGGUCGACCGGUCUGAUGAGUCUUCCCAUAGACGAAACAGC : normalized RNA/DNA level without ligand (log10) value = 1.83

// GCUGUCACCGGUGUAUUACCCUAGUGGUCGACCGGUCUGAUGAGUCUAAUUUUAGACGAAACAGC : normalized RNA/DNA level without ligand (log10) value = 1.89
